target: T1, TRCW5 antigen (CD3δε-Fc-Avi) (biotinylated (site not stated)); experiment: binding after heat
T1 construct: also called recombinant CD3
T1 sequence (chain, as listed by the source mutant limits assumed): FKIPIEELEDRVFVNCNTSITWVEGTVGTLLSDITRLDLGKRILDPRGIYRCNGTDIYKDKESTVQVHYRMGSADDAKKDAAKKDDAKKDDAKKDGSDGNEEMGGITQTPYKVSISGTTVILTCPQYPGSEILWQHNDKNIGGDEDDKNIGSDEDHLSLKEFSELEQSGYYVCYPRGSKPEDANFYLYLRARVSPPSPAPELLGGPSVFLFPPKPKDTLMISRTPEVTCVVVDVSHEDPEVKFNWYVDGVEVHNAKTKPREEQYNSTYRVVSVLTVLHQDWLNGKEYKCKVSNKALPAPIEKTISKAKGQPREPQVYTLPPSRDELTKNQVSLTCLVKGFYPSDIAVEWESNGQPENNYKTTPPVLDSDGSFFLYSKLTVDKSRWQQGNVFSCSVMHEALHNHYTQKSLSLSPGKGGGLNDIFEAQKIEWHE
endpointLabel: % Retained 55° C. (%)
Answers are plain numbers, in %.

Please review the following examples before continuing.
[[record]]
binder = "CD3B2051 N106R (scFv) scFv: QVQLVQSGAEVKKPGSSVKVSCKASGYTFTRSTMHWVKQAPGQGLEWMGYINPSSAYTNYNQKFQGRVTLTADKSTSTAYMELSSLRSEDTAVYYCASPQVHYDYRGFPYWGQGTLVTVSSGGSEGKSSGSGSESKSTGGSEIVLTQSPATLSASPGERVTLSCSASSSVSYMNWYQQKPGQAPRRLIYDSSKLASGVPARFSGSGSGRDYTLTISSLEPEDFAVYYCQQWSRNPPTFGGGTKVEIK"
endpointlabel = "% Retained 55° C."
testvalue = 101

[[record]]
binder = "CD3B2030 (scFv) scFv: QVQLVQSGAEVKKPGSSVKVSCKASGYTFTRSTMHWVKQAPGQGLEWIGYINPSSAYTNYNQKFQGRVTLTADKSTSTAYMELSSLRSEDTAVYYCASPQVHYDYNGFPYWGQGTLVTVSSGGSEGKSSGSGSESKSTGGSEIVLTQSPATLSASPGERVTLSCSASSSVSYMNWYQQKPGQAPRRWIYDSSKLASGVPARFSGSGSGRDYTLTISSLEPEDFAVYYCQQWSRNPPTFGGGTKVEIK"
endpointlabel = "% Retained 55° C."
testvalue = 104

[[record]]
binder = "CD3B2051 N106A (scFv) scFv: QVQLVQSGAEVKKPGSSVKVSCKASGYTFTRSTMHWVKQAPGQGLEWMGYINPSSAYTNYNQKFQGRVTLTADKSTSTAYMELSSLRSEDTAVYYCASPQVHYDYAGFPYWGQGTLVTVSSGGSEGKSSGSGSESKSTGGSEIVLTQSPATLSASPGERVTLSCSASSSVSYMNWYQQKPGQAPRRLIYDSSKLASGVPARFSGSGSGRDYTLTISSLEPEDFAVYYCQQWSRNPPTFGGGTKVEIK"
endpointlabel = "% Retained 55° C."
testvalue = 98.9


Please supply % Retained 55° C. for each of the following items, keeping them in order.
1. CD3B2089 N106F (scFv) scFv: QVQLVQSGAEVKKPGSSVKVSCKASGYTFTRSTMHWVRQAPGQGLEWMGYINPSSAYTNYAQKFQGRVTLTADKSTSTAYMELSSLRSEDTAVYYCASPQVHYDYFGFPYWGQGTLVTVSSGGSEGKSSGSGSESKSTGGSEIVLTQSPATLSASPGERVTLSCSASSSVSYMNWYQQKPGQAPRRWIYDSSKLASGVPARFSGSGSGRDYTLTISSLEPEDFAVYYCQQWSRNPPTFGGGTKVEIK
2. CD3B2051 N106S (scFv) scFv: QVQLVQSGAEVKKPGSSVKVSCKASGYTFTRSTMHWVKQAPGQGLEWMGYINPSSAYTNYNQKFQGRVTLTADKSTSTAYMELSSLRSEDTAVYYCASPQVHYDYSGFPYWGQGTLVTVSSGGSEGKSSGSGSESKSTGGSEIVLTQSPATLSASPGERVTLSCSASSSVSYMNWYQQKPGQAPRRLIYDSSKLASGVPARFSGSGSGRDYTLTISSLEPEDFAVYYCQQWSRNPPTFGGGTKVEIK
3. CD3B2089 N106I (scFv) scFv: QVQLVQSGAEVKKPGSSVKVSCKASGYTFTRSTMHWVRQAPGQGLEWMGYINPSSAYTNYAQKFQGRVTLTADKSTSTAYMELSSLRSEDTAVYYCASPQVHYDYIGFPYWGQGTLVTVSSGGSEGKSSGSGSESKSTGGSEIVLTQSPATLSASPGERVTLSCSASSSVSYMNWYQQKPGQAPRRWIYDSSKLASGVPARFSGSGSGRDYTLTISSLEPEDFAVYYCQQWSRNPPTFGGGTKVEIK
4. CD3B2051 N106G (scFv) scFv: QVQLVQSGAEVKKPGSSVKVSCKASGYTFTRSTMHWVKQAPGQGLEWMGYINPSSAYTNYNQKFQGRVTLTADKSTSTAYMELSSLRSEDTAVYYCASPQVHYDYGGFPYWGQGTLVTVSSGGSEGKSSGSGSESKSTGGSEIVLTQSPATLSASPGERVTLSCSASSSVSYMNWYQQKPGQAPRRLIYDSSKLASGVPARFSGSGSGRDYTLTISSLEPEDFAVYYCQQWSRNPPTFGGGTKVEIK
5. CD3B2030 N106H (scFv) scFv: QVQLVQSGAEVKKPGSSVKVSCKASGYTFTRSTMHWVKQAPGQGLEWIGYINPSSAYTNYNQKFQGRVTLTADKSTSTAYMELSSLRSEDTAVYYCASPQVHYDYHGFPYWGQGTLVTVSSGGSEGKSSGSGSESKSTGGSEIVLTQSPATLSASPGERVTLSCSASSSVSYMNWYQQKPGQAPRRWIYDSSKLASGVPARFSGSGSGRDYTLTISSLEPEDFAVYYCQQWSRNPPTFGGGTKVEIK
6. CD3B2089 (scFv) scFv: QVQLVQSGAEVKKPGSSVKVSCKASGYTFTRSTMHWVRQAPGQGLEWMGYINPSSAYTNYAQKFQGRVTLTADKSTSTAYMELSSLRSEDTAVYYCASPQVHYDYNGFPYWGQGTLVTVSSGGSEGKSSGSGSESKSTGGSEIVLTQSPATLSASPGERVTLSCSASSSVSYMNWYQQKPGQAPRRWIYDSSKLASGVPARFSGSGSGRDYTLTISSLEPEDFAVYYCQQWSRNPPTFGGGTKVEIK

113
101
40.6
98.9
104
104

Identify % Retained 55° C. associated with the binder CD3B2051 N106V (scFv) scFv: QVQLVQSGAEVKKPGSSVKVSCKASGYTFTRSTMHWVKQAPGQGLEWMGYINPSSAYTNYNQKFQGRVTLTADKSTSTAYMELSSLRSEDTAVYYCASPQVHYDYVGFPYWGQGTLVTVSSGGSEGKSSGSGSESKSTGGSEIVLTQSPATLSASPGERVTLSCSASSSVSYMNWYQQKPGQAPRRLIYDSSKLASGVPARFSGSGSGRDYTLTISSLEPEDFAVYYCQQWSRNPPTFGGGTKVEIK
54.9
